Values were extracted from patent US5185352A.

# system: calcium- and phospholipid-dependent protein kinase (PKC)
# method: Inhibition of the activity of protein kinase C (incorporation of P^32-labelled phosphate into histone H-1)
# assay.setup: PKC enriched from rat brain; histone H-1 substrate; 5 min, 30° C.; pH 7.5
pIC50: −log10 of the molar value. Structures can show the parent of a compound that is named as a salt.
value.type: pIC50

(I) CCCCCCCCCCCCCCCCCCOc1cn(Cc2ccc(OC)cc2)c(CNCCCN(C)C)cc1=O [Example 72, trihydrochloride monohydrate]
(II) CCCCCCCCCCCCCCCCCCOc1cn(CCC)c(COCCCN(C)C)cc1=O [Example 105, hydrate]
(III) CCCCCCCCCCCCCCCCCCOc1cn(Cc2ccccc2)c(CCC(=O)OC)cc1=O [Example 114]
Request: Hey, quick one: sort these by pIC50, largest value first please. Enter labels, ranked according to the request.
Result: II, I, III

(A) CCCCCCCCCCCCCCCCCCOc1cn(C(C)c2ccccc2)c(CN2CCN(Cc3ccccc3)CC2)cc1=O (single isomer, unassigned; (-)) [Example 99]
(B) CCCCCCCCCCCCCCCCCCOc1cn(-c2ccc(OCc3ccccc3)cc2)c(CNCCCN(C)C)cc1=O [Example 80]
(C) CCCCCCCCCCCCCCCCCCOc1cn(Cc2ccccc2)c(CCC(N)=O)cc1=O [Example 116]
Request: Please put the entries in order of rising pIC50. Enter labels, ranked according to the request.
Result: C, A, B

---

# system: calcium- and phospholipid-dependent protein kinase (PKC)
# method: Inhibition of the activity of protein kinase C (incorporation of P^32-labelled phosphate into histone H-1)
# assay.setup: PKC enriched from rat brain; histone H-1 substrate; 5 min, 30° C.; pH 7.5
pIC50: −log10 of the molar value. Counter-ions that a name gives are not always drawn.
value.type: pIC50

(A) CCCCCCCCCCCCCCCCCCOc1cn(CC2CCCCC2)c(COCCCN(C)C)cc1=O [Example 108, oxalate]
(B) CCCCCCCCCCCCCCCCCCOc1cn(Cc2ccc(Cl)cc2)c(CNCCCN(C)C)cc1=O [Example 69, hydrate]
Request: I need your help: which of the pair A , B has higher pIC50? Let me know the label of the one you choose.
Result: B
(B: 5.82, A: 5.54)

---

# system: calcium- and phospholipid-dependent protein kinase (PKC)
# method: Inhibition of the activity of protein kinase C (incorporation of P^32-labelled phosphate into histone H-1)
# Assay type: biochemical
# assay.setup: PKC enriched from rat brain; histone H-1 substrate; 5 min, 30° C.; pH 7.5
pIC50: −log10 of the molar value. Where a name gives a salt, the structure may show the parent alone.
value.type: pIC50

CCCCCCCCCCCCCCCCCCOc1cn(Cc2ccccc2)c(CNCCCN(C)Cc2ccccc2)cc1=O | 5.74
CCCCCCCCCCCCCCCCCCOc1cn(-c2ccc(OCc3ccccc3)cc2)c(CNCCCN(C)C)cc1=O [Example 79] | 5.66
CCCCCCCCCCCCCCCCCCOc1cn(Cc2ccccc2)c(COCCCN(C)C)cc1=O [Example 103, dihydrochloride] | 5.40
CCCCCCCCCCCCCCCCCCOc1cn(Cc2ccc(C)cc2)c(CNCCCN(C)C)cc1=O [Example 76, trihydrochloride hemihydrate] | 5.72
CCCCCCCCCCCCCCCCCCOc1cn(C(C)c2ccccc2)c(CN2CCN(Cc3ccccc3)CC2)cc1=O (single isomer, unassigned; (+)) [Example 100] | 5.57
CCCCCCCCCCCCCCCCCCOc1cn(Cc2ccccc2OC)c(CNCCCN(C)C)cc1=O [Example 74, difumarate] | 5.68
CCCCCCCCCCCCCCCCCCOc1cn(Cc2ccccc2)c(CNCCCCN)cc1=O [Example 77, trihydrochloride] | 5.64
CCCCCCCCCCCCCCCCCCOc1cn(Cc2ccc(Cl)cc2)c(COCCCN(C)C)cc1=O [Example 109, hydrate] | 5.59

---

# system: calcium- and phospholipid-dependent protein kinase (PKC)
# method: Inhibition of the activity of protein kinase C (incorporation of P^32-labelled phosphate into histone H-1)
# assay.setup: PKC enriched from rat brain; histone H-1 substrate; 5 min, 30° C.; pH 7.5
Structures can show the parent of a compound that is named as a salt.
value.type: IC50 (nM)

Here is how some compounds turned out for IC50.
CCCCCCCCCCCCCCCCCCOc1cn(C)c(CNCCCN)cc1=O [Example 60, trihydrochloride] | 2700
CCCCCCCCCCOc1cn(Cc2ccccc2)c(CN2CCN(CCc3ccccc3)CC2)cc1=O | 4300
CCCCCCCCCCCCCCCCCCOc1cn(Cc2ccccc2)c(CN2CCC(CN)(c3ccccc3)CC2)cc1=O [Example 101, trihydrochloride] | 1500
CCCCCCCCCCCCCCCCCCOc1cn(CC2CCCCC2)c(CNCCCN(C)C)cc1=O [Example 68, difumarate] | 1900

(P) CCCCCCCCCCCCCCCCCCOc1cn(CCC)c(CNCCCN(C)C)cc1=O [Example 59, dioxalate]
(Q) CCCCCCCCCCCCCCCCCCOc1cn(-c2ccc(O)cc2)c(CNCCCN(C)C)cc1=O
Request: I need your help: which of the pair P , Q has higher IC50? Let me know the label of the one you choose.
Result: Q

(a) CCCCCCCCCCCCCCCCCCOc1cn(Cc2ccccc2)c(CNCCCN)cc1=O [Example 61, trihydrochloride]
(b) CCCCCCCCCCCCCCCCCCOc1cn(Cc2ccc(O)cc2)c(CNCCCN(C)C)cc1=O
Request: Identify the entry with the smaller IC50: a or b . Let me know the label of the one you choose.
Result: a
(a: 2100 nM, b: 3400 nM)

(A) CCCCCCCCCCCCCCCCCCOc1cn(C)c(CNCCCN(C)C)cc1=O [Example 56, trihydrochloride hemihydrate]
(B) CCCCCCCCCCCCCCOc1cn(Cc2ccccc2)c(CNCCCN(C)C)cc1=O [Example 65, dioxalate monohydrate]
(C) CCCCCCCCCCCCCCCCCCOc1cn(Cc2ccccc2)c(CN(C)C)cc1=O [Example 73, oxalate hemihydrate]
Request: Kindly order the items shown according to IC50, from the highest value down. Enter labels, ranked according to the request.
Result: B, C, A
